# Tested on: Human papillomavirus type 1a E7 protein (residues 1-88)
# ASSAY DETAILS: HPV1a E7 small-molecule binders, primary screen, biochemical, small-molecule microarray, residues 1-88, 635 nm (AID 1129)
# STUDY CONDITIONS: small-molecule microarray binding, fluorescence 635 nm; higher = more signal
Please use the following composite z-score ranges when assigning a class: low (below -0.4), intermediate (-0.4 to below 0.2), high (0.2 or more)

Example entries begin here.
INPUT: Category of `COC(=O)CC=C[C@H](C)[C@H](CO)NS(=O)(=O)c1ccc(C)cc1` :
OUTPUT: high

INPUT: Category of `CC(=O)OC[C@H]1O[C@H](CCON=C[C@@H](C)[C@H](OCc2ccccc2)C(C)C)C=C[C@@H]1OC(C)=O` :
OUTPUT: intermediate

INPUT: Category of `CC(C)[Si]1(C(C)C)O[C@@H](c2ccccc2)c2cc(C3CC3)nc(-c3ccccc3)c21` :
OUTPUT: low

INPUT: Category of `CC(CCC(=O)OC[C@H]1O[C@H](C#Cc2ccccc2)C=C[C@@H]1Oc1ccc(C)cc1)=NOC[C@@H](O)COCc1ccco1` :
OUTPUT: low

INPUT: Category of `C#CCCCON=C1C[C@@H](O)[C@@H](O)[C@@H]2[C@@H]3C(=O)N(c4cccc(Oc5ccccc5)c4)C(=O)[C@@H]3CC[C@@H]12` :
OUTPUT: high

INPUT: Category of `CC(=O)OC[C@H]1O[C@H](CCON=C(C)CCN2CCc3nc(-c4ccccc4)c(-c4ccccc4)cc3C2)C=C[C@@H]1OC(C)=O` :
OUTPUT: intermediate

INPUT: Category of `CCOC(=O)NN=C1C[C@@H](O)[C@@H](O)[C@@H]2[C@@H]3C(=O)N(C[C@@H]4CCCO4)C(=O)[C@@H]3CC[C@@H]12` :
OUTPUT: high

INPUT: Category of `C[C@@H](c1ccccc1)N1C(=O)[C@H]2[C@H]3[C@H](O)[C@H](O)CC(=NNC(=O)OCc4ccccc4)[C@H]3CC[C@H]2C1=O` :
OUTPUT: intermediate

INPUT: Category of `O=C1[C@H]2[C@H]3[C@H](O)[C@H](O)CC(=NOC[C@@H](O)COCc4ccco4)[C@H]3CC[C@H]2C(=O)N1c1cccc(Oc2ccccc2)c1` :
OUTPUT: low

INPUT: Category of `C#C[C@@H]1Oc2ccccc2S(=O)(=O)N2CCC[C@H]12` :
OUTPUT: intermediate

Next:
INPUT: Category of `COC(=O)CC=C[C@@H](C)[C@H](OC)c1ccccc1Br` :
OUTPUT: intermediate

INPUT: Category of `CO[C@H]([C@@H](C)[C@H](OC)c1ccccc1)[C@H](C)[C@@H](OC)[C@H](C)C(C)=O` :
OUTPUT: low

INPUT: Category of `COc1ccc([Si](C)(C)[C@H]2[C@H](CC(=O)N3CCC[C@H]3CO)O[C@@]3(C(=O)N(Cc4cccc(N5C(=O)COc6ccccc65)c4)c4ccccc43)[C@@H]2C)cc1` :
OUTPUT: high

INPUT: Category of CN(C)c1ccc(C(O)C2C=CC3C(=O)N(c4ccccc4)C(=O)C3N2Nc2ccccc2F)cc1 (stereo unspecified) :
OUTPUT: high

INPUT: Category of `COCCCNC(=O)[C@@]1(C)c2ccccc2C(=O)N(Cc2ccc(OC(F)(F)F)cc2)[C@H]1c1ccc(CO)cc1` :
OUTPUT: low
